system: Tov-21-G; test: Primary qHTS to identify gynecologic anti-cancer compounds using libraries of approved drugs and bioactive compounds (AID 1345084); settings: Gynecologic cancer cell panel viability, ATPlite luminescence, 48 h; series mostly up to 57.5 µM; also: nearly all actives have a fitted effect of over 55% in size
Results filed as inconclusive are left out. The source made the active and inactive calls. Calls follow the shape of the dose curve; as a rule, active = well fitted cell-killing curve with a large enough effect; inconclusive = small, poorly fitted or top-dose-only effect, or effect the other way; inactive = flat fitted curve, though single readings scatter.
# output must be one of active, inactive

Task: Fill in: this test's call for "C=C[C@H]1[C@H](O[C@@H]2O[C@H](CO)[C@@H](O)[C@H](O)[C@H]2O)OC=C(C(=O)OC)[C@H]1CC(=O)O" is ___
Output: inactive

Task: Let us now turn to C=C(C(=O)O)C1CC2=C(C)CCCC2(C)C[C@@H]1O (stereo partly drawn)
Output: inactive

Task: Let us now turn to "COc1ccc(-c2nc(-c3ccc(-c4cccc(Cl)c4)o3)[nH]c2-c2ccc(OC)cc2)cc1"
Output: inactive

Task: Let us now turn to Cc1nc(NC(=O)N2CCCC2C(N)=O)sc1-c1csc(C(C)(C)C)n1 (stereo not drawn)
Output: inactive

Task: Let us now turn to "C=C[C@@H]1[C@H](O[C@@H]2O[C@H](CO)[C@@H](O)[C@H](O)[C@H]2O)OC=C(C(=O)O)[C@H]1CCOC(=O)/C=C/c1ccc(O)c(O)c1"
Output: inactive

Task: Let us now turn to CC(=O)O[C@H]1C[C@@](O)(C(C)C)C2[C@@H](OC(=O)c3ccc(O)cc3)C[C@@]3(C)O[C@H]3C[C@]21C (stereo partly drawn)
Output: inactive

Task: Let us now turn to CC1(CCOC2OC(CO)C(O)C(O)C2O)CCC23OC2(C1)C(O)CC1C(C)(C(=O)O)CCCC13C (stereo not drawn)
Output: inactive

Task: Let us now turn to O=C(NCC(O)CO)c1ccncc1Nc1ccc(I)cc1F (stereo not drawn)
Output: active
